Ref: patent US20230416248A1

- STUDY_SYSTEM: BRM (Homo sapiens)
- Construct: made in house; host or cells: High Five insect cells
- ASSAY_PROCEDURE: ATPase catalytic activity of BRM, ADP-Glo in vitro biochemical assay
- CONDITIONS_USED: ratio of BRG1 IC50 to BRM IC50
REPORTED_ENDPOINT: Ratio*
Numbers only.

Dear reader, for each entry below, please note its Ratio*.
1. C[C@@H]1CN(c2cccc(-c3ccc4cnc(CNC(=O)c5ccc6c(c5)S(=O)(=O)[C@H](C)C6)cc4n3)n2)C[C@H](C)O1
2. O=C(NCc1cc2nc(N3CCCc4cc(C(F)F)cnc43)ccc2cn1)c1ccc2c(c1)S(=O)(=O)CCOC2

**A:**
[14.99, 13.46]

Dear reader, for each entry below, please note its Ratio*.
1. COC[C@H](NC(=O)c1ccc2c(c1)S(=O)(=O)CCOC2)c1cc2nc(-c3cccc(C4CC4)n3)ccc2cn1
2. C[C@@H]1CN(c2cccc(-c3ccc4cnc(CNC(=O)c5cnc6c(c5)S(=O)(=O)[C@H](C)CCC6)cc4n3)n2)C[C@H](C)O1
3. CC1CN(c2cccc(-c3ccc4cnc(CNC(=O)c5ccc6c(c5)S(=O)(=O)C(C)COC6C)cc4n3)n2)CC(C)O1 (stereo not shown) [Compound 540]

**A:**
1. 6.28
2. 11.23
3. 20.63

Dear reader, for each entry below, please note its Ratio*.
1. O=C(NCc1cc2nc(N3CCCc4cc(F)c(F)cc43)ccc2cn1)c1ccc2c(c1)S(=O)(=O)CCOC2
2. CCOc1cccc(-c2ccc3cnc(CNC(=O)c4cc(F)c5c(c4)S(=O)(=O)[C@@H](C)COC5)cc3n2)n1

**A:**
[14.05, 21.75]

* * *

- STUDY_SYSTEM: BRG-1 (Homo sapiens)
- Construct: made in house; host or cells: High Five insect cells
- Sequence (P51532 whole entry): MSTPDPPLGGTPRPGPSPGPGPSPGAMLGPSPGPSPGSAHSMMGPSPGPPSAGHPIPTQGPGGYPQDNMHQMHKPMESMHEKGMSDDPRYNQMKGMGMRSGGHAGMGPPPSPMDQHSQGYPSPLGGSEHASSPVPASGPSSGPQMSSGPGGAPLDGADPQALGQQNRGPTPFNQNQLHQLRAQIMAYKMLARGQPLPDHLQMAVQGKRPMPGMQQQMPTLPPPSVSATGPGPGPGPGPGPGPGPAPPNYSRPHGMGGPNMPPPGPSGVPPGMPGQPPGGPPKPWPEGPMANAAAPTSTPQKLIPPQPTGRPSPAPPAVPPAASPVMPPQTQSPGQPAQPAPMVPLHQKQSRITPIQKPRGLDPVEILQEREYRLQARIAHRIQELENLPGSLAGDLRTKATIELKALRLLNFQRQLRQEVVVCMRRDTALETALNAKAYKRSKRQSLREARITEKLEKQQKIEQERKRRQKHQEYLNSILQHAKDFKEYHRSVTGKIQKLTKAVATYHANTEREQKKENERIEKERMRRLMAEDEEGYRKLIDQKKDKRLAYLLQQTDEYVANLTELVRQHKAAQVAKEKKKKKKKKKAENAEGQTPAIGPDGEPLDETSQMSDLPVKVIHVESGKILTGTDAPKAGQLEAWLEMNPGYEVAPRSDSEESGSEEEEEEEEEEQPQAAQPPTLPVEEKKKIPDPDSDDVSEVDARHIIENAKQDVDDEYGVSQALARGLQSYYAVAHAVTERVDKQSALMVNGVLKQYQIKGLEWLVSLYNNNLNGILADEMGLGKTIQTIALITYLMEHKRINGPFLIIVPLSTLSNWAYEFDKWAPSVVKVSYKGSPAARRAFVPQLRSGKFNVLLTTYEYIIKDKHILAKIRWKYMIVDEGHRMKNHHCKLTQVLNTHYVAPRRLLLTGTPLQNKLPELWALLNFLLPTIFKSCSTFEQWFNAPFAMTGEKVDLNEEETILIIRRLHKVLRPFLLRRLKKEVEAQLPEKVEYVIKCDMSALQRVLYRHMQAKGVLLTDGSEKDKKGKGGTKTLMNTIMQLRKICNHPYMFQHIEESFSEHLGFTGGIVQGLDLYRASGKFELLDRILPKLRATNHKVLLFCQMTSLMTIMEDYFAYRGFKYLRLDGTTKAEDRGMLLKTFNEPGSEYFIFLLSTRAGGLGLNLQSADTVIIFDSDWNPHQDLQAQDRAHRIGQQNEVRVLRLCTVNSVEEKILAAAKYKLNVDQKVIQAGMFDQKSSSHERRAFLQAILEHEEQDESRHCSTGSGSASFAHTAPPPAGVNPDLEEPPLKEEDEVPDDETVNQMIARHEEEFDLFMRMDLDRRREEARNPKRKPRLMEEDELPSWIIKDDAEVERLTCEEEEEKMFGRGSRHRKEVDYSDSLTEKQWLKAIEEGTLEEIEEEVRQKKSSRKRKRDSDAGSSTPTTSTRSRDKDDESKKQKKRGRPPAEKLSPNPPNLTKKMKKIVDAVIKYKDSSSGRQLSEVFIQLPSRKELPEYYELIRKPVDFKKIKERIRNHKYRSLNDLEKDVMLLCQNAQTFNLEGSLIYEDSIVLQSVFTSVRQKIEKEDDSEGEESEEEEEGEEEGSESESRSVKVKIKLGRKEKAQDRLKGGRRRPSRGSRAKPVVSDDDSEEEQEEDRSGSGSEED
- ASSAY_PROCEDURE: ATPase catalytic activity of BRG-1, ADP-Glo in vitro biochemical assay
- CONDITIONS_USED: ADP-Glo ATPase assay, 30 nM BRG-1, 400 μM ATP; read-out: BRG1 IC50
Field: IC50. Provide a value for each of the molecules that follow.
One number for each entry, in nM.

Reference set (6 entries):
# MOLECULE, STUDY_SYSTEM, IC50 / nM
data = [
    ("CC1(c2cnc3c(c2)OCCN3c2ccc3cnc(CNC(=O)c4ccc5c(c4)S(=O)(=O)CCOC5)cc3n2)CC1", "BRG-1 (Homo sapiens)", 102),
    ("CO[C@H]1C[C@@H](c2cccc(-c3ccc4cnc(CNC(=O)c5ccc6c(c5)S(=O)(=O)CCOC6)cc4n3)n2)C1", "BRG-1 (Homo sapiens)", 583),
    ("Cn1ccc2c(-c3ccc4cnc(CNC(=O)c5ccc6c(c5)S(=O)(=O)CCOC6)cc4n3)ccnc21", "BRG-1 (Homo sapiens)", 669),
    ("CS(=O)(=O)c1cc(C(=O)NCc2cc3nc(-c4cccc(N5CC[C@@H]6COCC6C5)n4)ccc3cn2)ccc1C(F)F (some centres unmarked)", "BRG-1 (Homo sapiens)", 324),
    ("Cc1nc2c(cc1F)OCCN2c1ccc2cnc(CNC(=O)c3ccc4c(c3)S(=O)(=O)CCOC4)cc2n1", "BRG-1 (Homo sapiens)", 339),
    ("Cc1ncc(C(=O)NCc2cc3nc(-c4cncc(C5CC5)n4)ccc3cn2)cc1S(C)(=O)=O", "BRG-1 (Homo sapiens)", 2190),
]

Dear reader, for each entry below, please note its IC50.
1. Cc1ccc(C(=O)NCc2cc3nc(-c4cncc(C5CC5)n4)ccc3cn2)cc1S(=O)(=O)N(C)C
2. C[C@@H]1CN(c2cccc(-c3ccc4cnc(CNC(=O)c5cc(Cl)c6c(c5)S(=O)(=O)CCOC6)cc4n3)n2)C[C@H](C)O1
3. CS(=O)(=O)c1cc(C(=O)NCc2cc3nc(-c4cncc(C5CC5)n4)ccc3cn2)cnc1C(F)F

**A:**
[3480, 108, 5360]

Dear reader, for each entry below, please note its IC50.
1. O=C(NCc1cc2nc(N3CCCc4ccncc43)ccc2cn1)c1ccc2c(c1)S(=O)(=O)CCOC2
2. C[C@@H]1CN(c2cccc(-c3ccc4cnc(CNC(=O)c5ccc(C(F)F)c(S(C)(=O)=O)c5)cc4n3)n2)C[C@H](C)O1
3. O=C(NCc1cc2nc(-c3cncc(C4CC4)n3)ccc2cn1)c1ccc2c(c1)[S+]([O-])CCOC2 (centres unmarked)
4. O=C(NCc1cc2nc(-c3cccc(OC4CC(F)(F)C4)n3)ccc2cn1)c1ccc2c(c1)S(=O)(=O)CCOC2
5. O=C(NCc1cc2c(cn1)CCN(c1cncc(C3CC3)n1)C2)c1ccc2c(c1)S(=O)(=O)CCOC2

**A:**
716
110
6360
1180
1240

* * *

- STUDY_SYSTEM: BRM (Homo sapiens, UniProt P51531)
- Construct: made in house; host or cells: High Five insect cells
- Sequence (P51531 whole entry): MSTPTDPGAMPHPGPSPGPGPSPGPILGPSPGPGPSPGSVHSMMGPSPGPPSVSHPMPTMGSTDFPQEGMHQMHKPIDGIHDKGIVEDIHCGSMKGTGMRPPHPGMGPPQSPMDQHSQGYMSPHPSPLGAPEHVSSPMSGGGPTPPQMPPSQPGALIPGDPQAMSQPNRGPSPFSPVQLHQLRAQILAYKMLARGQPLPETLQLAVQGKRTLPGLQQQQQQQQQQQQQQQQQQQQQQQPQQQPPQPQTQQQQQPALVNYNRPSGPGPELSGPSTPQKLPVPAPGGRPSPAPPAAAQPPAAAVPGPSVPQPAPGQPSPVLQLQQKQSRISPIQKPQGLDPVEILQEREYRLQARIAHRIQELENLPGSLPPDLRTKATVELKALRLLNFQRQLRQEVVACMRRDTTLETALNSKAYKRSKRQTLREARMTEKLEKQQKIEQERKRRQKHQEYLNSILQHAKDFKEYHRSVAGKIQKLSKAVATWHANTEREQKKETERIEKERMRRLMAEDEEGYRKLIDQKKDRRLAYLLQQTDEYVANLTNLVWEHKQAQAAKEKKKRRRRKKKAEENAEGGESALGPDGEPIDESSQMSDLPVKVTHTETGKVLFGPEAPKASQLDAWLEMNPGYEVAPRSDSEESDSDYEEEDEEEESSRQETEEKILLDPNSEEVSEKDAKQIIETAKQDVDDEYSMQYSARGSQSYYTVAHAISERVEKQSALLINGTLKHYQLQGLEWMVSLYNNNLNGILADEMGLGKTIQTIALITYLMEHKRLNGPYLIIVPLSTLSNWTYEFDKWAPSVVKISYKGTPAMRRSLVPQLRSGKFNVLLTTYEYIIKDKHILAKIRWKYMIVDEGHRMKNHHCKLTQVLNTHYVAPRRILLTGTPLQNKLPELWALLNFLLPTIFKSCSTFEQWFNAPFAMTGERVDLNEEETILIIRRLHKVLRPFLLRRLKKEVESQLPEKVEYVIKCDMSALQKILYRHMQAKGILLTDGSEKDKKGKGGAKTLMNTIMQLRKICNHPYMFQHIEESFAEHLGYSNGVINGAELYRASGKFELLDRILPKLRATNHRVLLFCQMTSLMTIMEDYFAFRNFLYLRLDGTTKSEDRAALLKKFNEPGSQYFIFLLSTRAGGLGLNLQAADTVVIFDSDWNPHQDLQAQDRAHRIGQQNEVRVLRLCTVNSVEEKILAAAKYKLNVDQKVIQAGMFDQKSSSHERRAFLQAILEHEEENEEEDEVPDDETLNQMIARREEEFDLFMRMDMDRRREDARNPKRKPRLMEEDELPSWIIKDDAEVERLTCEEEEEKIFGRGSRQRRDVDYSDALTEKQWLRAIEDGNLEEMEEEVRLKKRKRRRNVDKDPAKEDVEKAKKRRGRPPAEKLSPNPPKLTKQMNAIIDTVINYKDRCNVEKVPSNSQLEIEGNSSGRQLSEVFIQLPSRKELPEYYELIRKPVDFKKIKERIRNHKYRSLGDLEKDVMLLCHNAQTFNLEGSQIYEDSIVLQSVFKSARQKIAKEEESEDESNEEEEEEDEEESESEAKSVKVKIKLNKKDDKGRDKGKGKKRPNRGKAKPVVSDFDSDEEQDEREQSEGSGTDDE
- ASSAY_PROCEDURE: ATPase catalytic activity of BRM, ADP-Glo in vitro biochemical assay
- CONDITIONS_USED: ADP-Glo ATPase assay, 30 nM BRM, 400 μM ATP
Field: IC50. Provide a value for each of the molecules that follow.
Please provide the amount together with its unit, number first.

# MOLECULE, VALUE_OBSERVED
records = [
    ("O=C(NCc1cc2nc(N3CC4CC4c4cccnc43)ccc2cn1)c1ccc2c(c1)S(=O)(=O)CCOC2 (stereo not shown) [Compound 855]", "395 nM"),
]

Dear reader, for each entry below, please note its IC50.
1. O=C(NCc1cc2nc(-c3cccc4c3OCO4)ccc2cn1)c1ccc2c(c1)S(=O)(=O)CCOC2 [Compound 229]
2. COCc1cc(F)c2c(c1)OCCN2c1ccc2cnc(CNC(=O)c3ccc4c(c3)S(=O)(=O)CCOC4)cc2n1 [Compound 796]
3. COCCN1CCc2ccc(-c3ccc4cnc(CNC(=O)c5ccc6c(c5)S(=O)(=O)CCOC6)cc4n3)nc2C1 [Compound 772]
4. O=C(NCc1cc2nc(N3CCOc4ccc(C5CCC5)nc43)ccc2cn1)c1ccc2c(c1)S(=O)(=O)CCOC2 [Compound 722]
5. O=C(NCc1cc2nc(N3CCOc4cnc(C5CC5)cc43)ccc2cn1)c1ccc2c(c1)S(=O)(=O)CCOC2 [Compound 755]
6. CO[C@@H](C)COc1ccc2c(c1)N(c1ccc3cnc(CNC(=O)c4ccc5c(c4)S(=O)(=O)CCOC5)cc3n1)CCC2 [Compound 706]

**A:**
119 nM
20.8 nM
397 nM
8.8 nM
7.1 nM
5 nM

* * *

- STUDY_SYSTEM: BRM (Homo sapiens, UniProt P51531)
- Construct: made in house; host or cells: High Five insect cells
- ASSAY_PROCEDURE: ATPase catalytic activity of BRM, ADP-Glo in vitro biochemical assay
- CONDITIONS_USED: ATPase catalytic activity, ADP-Glo; 30 nM BRM, 400 μM ATP
Field: pIC50. Provide a value for each of the molecules that follow.
Answers are plain numbers, as −log10 of the molar value.

# MOLECULE, VALUE_OBSERVED
measured = [
    ("C[C@@H]1CN(c2cccc(-c3ccc4cnc(CNC(=O)c5ccc6c(c5)S(=O)(=O)[C@H](C)CC6)cc4n3)n2)C[C@H](C)O1 [Compound 362]", 7.77),
]

Dear reader, for each entry below, please note its pIC50.
1. COCc1ccc2c(n1)N(c1ccc3cnc(CNC(=O)c4ccc5c(c4)S(=O)(=O)CCOC5)cc3n1)CCC2 [Compound 445]
2. COc1nc(-c2ccc3cnc(CNC(=O)c4ccc5c(c4)S(=O)(=O)CCOC5)cc3n2)ccc1C(F)F [Compound 399]
3. COc1cc(C2CC2)ccc1-c1ccc2cnc(CNC(=O)c3ccc4c(c3)S(=O)(=O)CCOC4)cc2n1 [Compound 387]

**A:**
1: 7.69; 2: 8.11; 3: 7.17

* * *

- STUDY_SYSTEM: BRM (Homo sapiens, UniProt P51531)
- Construct: made in house; host or cells: High Five insect cells
- ASSAY_PROCEDURE: ATPase catalytic activity of BRM, ADP-Glo in vitro biochemical assay
- CONDITIONS_USED: ADP-Glo ATPase assay, 30 nM BRM, 400 μM ATP
Field: IC50. Provide a value for each of the compounds that follow.
One number for each entry, in µM.

Reference set (3 entries):
# SMILES_NOTATION, REPORTED_ENDPOINT, VALUE_OBSERVED
rows = [
    ("CCO[C@H]1CCOc2c(-c3ccc4cnc(CNC(=O)c5ccc6c(c5)S(=O)(=O)CCOC6)cc4n3)cccc21", "IC50", 0.211),
    ("O=C(NCc1cc2nc(N3CCOc4cc(C5CCC5)cnc43)ccc2cn1)c1ccc2c(c1)S(=O)(=O)CCOC2", "IC50", 0.0142),
    ("Cc1cc2ccc(-c3ccc4cnc(CNC(=O)c5ccc6c(c5)S(=O)(=O)CCOC6)cc4n3)nc2n1C", "IC50", 0.0157),
]

Now let's try a different one.
**Q:** Value lookup for IC50; key = C[C@H]1CN(c2cccc(-c3ccc4cnc(CNC(=O)c5ccc(C(F)F)c(S(C)(=O)=O)c5)cc4n3)n2)C[C@H](C)O1
**A:** 0.0384
